Items are presented alongside their recorded self-cleavage kobs at 10000 uM GlcN6P.
B1: glmS ribozyme (parent)
chain: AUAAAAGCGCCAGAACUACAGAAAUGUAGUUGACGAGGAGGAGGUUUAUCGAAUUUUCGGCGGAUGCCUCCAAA

Variants of: B1
Experiment description: self-cleavage kobs at 10000 uM GlcN6P; higher = faster cleavage; RNA array
Experimental conditions: with glucosamine-6-phosphate
Fewer inactive variants are shown than the library holds.

{"Mut": "C16A U31C", "Scale unit": "s⁻¹", "Prefix operator": "=", "self-cleavage kobs at 10000 uM GlcN6P": 0.000418}
{"Mut": "G37C A64U", "Scale unit": "s⁻¹", "Prefix operator": "<", "self-cleavage kobs at 10000 uM GlcN6P": "1e-05"}
{"Mut": "A39G C68G", "Scale unit": "s⁻¹", "Prefix operator": "=", "self-cleavage kobs at 10000 uM GlcN6P": 0.000116}
{"Mut": "A64U C67U", "Scale unit": "s⁻¹", "Prefix operator": "=", "self-cleavage kobs at 10000 uM GlcN6P": "5.31e-05"}
{"Mut": "A53G U57A", "Scale unit": "s⁻¹", "Prefix operator": "=", "self-cleavage kobs at 10000 uM GlcN6P": 0.00023}
{"Mut": "G44C A48U", "Scale unit": "s⁻¹", "Prefix operator": "<", "self-cleavage kobs at 10000 uM GlcN6P": "1e-05"}
{"Mut": "G37C G59A", "Scale unit": "s⁻¹", "Prefix operator": "<", "self-cleavage kobs at 10000 uM GlcN6P": "1e-05"}
{"Mut": "U46G A48G", "Scale unit": "s⁻¹", "Prefix operator": "=", "self-cleavage kobs at 10000 uM GlcN6P": "7.08e-05"}
{"Mut": "G51U U57A", "Scale unit": "s⁻¹", "Prefix operator": "<", "self-cleavage kobs at 10000 uM GlcN6P": "1e-05"}
{"Mut": "C10A G51U", "Scale unit": "s⁻¹", "Prefix operator": "<", "self-cleavage kobs at 10000 uM GlcN6P": "1e-05"}
{"Mut": "G44U C68U", "Scale unit": "s⁻¹", "Prefix operator": "=", "self-cleavage kobs at 10000 uM GlcN6P": "2.31e-05"}
{"Mut": "A15C A52U A53G U56C", "Scale unit": "s⁻¹", "Prefix operator": "<", "self-cleavage kobs at 10000 uM GlcN6P": "1e-05"}
{"Mut": "A14G G32A", "Scale unit": "s⁻¹", "Prefix operator": "=", "self-cleavage kobs at 10000 uM GlcN6P": 0.0136}
{"Mut": "A15C G32A U55A", "Scale unit": "s⁻¹", "Prefix operator": "=", "self-cleavage kobs at 10000 uM GlcN6P": 0.00137}
{"Mut": "G35U A39G", "Scale unit": "s⁻¹", "Prefix operator": "<", "self-cleavage kobs at 10000 uM GlcN6P": "1e-05"}
